molecular target: Recombinant Cat D (Homo sapiens (Human)); assay: In vitro enzymatic Cathepsin D (Cat D) FRET assay; type: biochemical; details: read-out: IC50 IP (μM) CatD
MEASURE NAME: IC50 (µM)

A: C[C@H](O)[C@]12C[C@H]1[C@@](C)(c1cc(Nc3ncnc4cc(C#N)cnc34)cc(F)c1F)N=C(N)S2
B: C[C@]1(c2cc(NC(=O)c3cnc(OCC(F)(F)F)cn3)ccc2F)N=C(N)S[C@@]2(C(=O)NCCF)C[C@H]21
C: C[C@]1(c2cc(Nc3ncnc4cc(C#N)cnc34)cnc2F)N=C(N)S[C@@]2(C(F)F)C[C@@H]12
Exam item: Put the items in sequence by IC50, from largest down. Reply with the item labels sorted in the order that was asked for.
Marked response: C, A, B

---

Target: human recombinant BACE2 (Homo sapiens (Human), UniProt Q9Y5Z0)
Sequence (Q9Y5Z0 63-518): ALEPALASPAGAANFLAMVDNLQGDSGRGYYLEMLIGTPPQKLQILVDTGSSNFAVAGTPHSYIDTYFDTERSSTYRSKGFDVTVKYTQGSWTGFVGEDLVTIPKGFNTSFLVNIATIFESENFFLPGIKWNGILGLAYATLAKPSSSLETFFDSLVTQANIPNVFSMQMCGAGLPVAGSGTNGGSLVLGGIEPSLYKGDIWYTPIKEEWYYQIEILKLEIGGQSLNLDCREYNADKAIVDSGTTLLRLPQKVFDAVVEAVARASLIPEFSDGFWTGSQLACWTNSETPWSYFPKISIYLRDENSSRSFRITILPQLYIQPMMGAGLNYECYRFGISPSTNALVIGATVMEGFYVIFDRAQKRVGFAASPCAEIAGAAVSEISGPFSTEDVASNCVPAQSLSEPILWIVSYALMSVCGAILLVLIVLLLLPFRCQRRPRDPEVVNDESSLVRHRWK
Assay: In vitro enzymatic BACE2 FRET assay
Type: biochemical
Details: read-out: IC50 IP (μM) BACE2 enzyme
Procedure: These recombinant proteins were further purified using Ni-NTA affinity chromatography (Qiagen). […] This assay is effectively started by the addition of FRET substrate (50 nM) and the combination is incubated for one hour. The FRET assay is terminated by addition of Tris buffer, which raises the pH to neutrality, and the fluorescence is determined. […] Proteolytic cleavage of the FRET substrate releases quenching of fluorescence (excitation 488 nm and emission 590 nm).
MEASURE NAME: IC50 (µM)

Use the examples below as a reference point.
| COMPOUND | MEASURE NAME | ASSAY RESULT |
| --- | --- | --- |
| CNC(=O)[C@]12C[C@H]1[C@@](C)(c1cc(NC(=O)c3ncc(OCC(F)(F)F)cc3C)cc(F)c1F)N=C(N)S2 [Example 702] | IC50 | 0.269 |
| C#CCOc1cnc2c(Nc3ccc(F)c([C@@]4(CF)N=C(N)S[C@@]5(/C=C/C(=O)N(C)C)C[C@H]54)c3)nccc2n1 [Example 768] | IC50 | 0.00612 |
| COC[C@]12C[C@H]1[C@@](C)(c1cc(Nc3nccc4cc(OCc5ncc(Cl)s5)cnc34)cc(F)c1F)N=C(N)S2 [Example 735] | IC50 | 0.978 |
| C#CCOc1cnc(C(=O)Nc2cc(F)c(F)c([C@@]3(C)N=C(N)S[C@@]4(S(C)(=O)=O)C[C@H]43)c2)cn1 [Example 744] | IC50 | 0.0183 |
| C#CCOc1cnc(C(=O)Nc2cc(C)c(F)c([C@@]3(C)N=C(N)S[C@@]4(COC)C[C@H]43)c2)cn1 [Example 1043] | IC50 | 0.00931 |

I: CC(C)(C)NC(=O)[C@]12C[C@H]1[C@@](C)(c1cc(NC(=O)c3ccc(C#N)cn3)ccc1F)N=C(N)S2 [Example 986]
II: C#CCOc1cnc2c(Nc3cc(F)c(F)c([C@@]4(C)N=C(N)S[C@@]5(C(=O)NC)C[C@H]54)c3)nccc2n1 [Example 915]
III: COC[C@H](C)Oc1cnc(C(=O)Nc2ccc(F)c([C@@]3(C)N=C(N)S[C@@]4(C(=O)NC(C)(C)C)C[C@H]43)c2)cn1 [Example 1003]
Exam item: In this exercise, place the 3 compounds in ascending sequence of their recorded IC50. Response field: labels, in requested order.
Marked response: I, II, III

a: C#C[C@H](C)Oc1cnc(C(=O)Nc2cc(F)c(F)c([C@@]3(C)N=C(N)S[C@@]4(C(F)F)C[C@@H]34)c2)c(C)n1 [Example 617]
b: COC[C@]12C[C@H]1[C@@](C)(c1cc(Nc3nccc4nc(OCc5ncco5)cnc34)cnc1F)N=C(N)S2 [Example 849]
c: C#CCOc1cnc2c(Nc3cnc(F)c([C@@]4(C)N=C(N)S[C@@]5([C@@H](O)C(F)(F)F)C[C@H]54)c3)nccc2n1 [Example 660]
d: C[C@]1(c2cc(NC(=O)c3cnc(OCC(F)(F)F)cn3)ccc2F)N=C(N)S[C@@]2(C(=O)N3CCOCC3)C[C@H]21 [Example 998]
e: CN(C)C(=O)[C@]12C[C@H]1[C@@](C)(c1cc(NC(=O)c3cnc(OCC(F)(F)C(F)F)cn3)cc(F)c1F)N=C(N)S2 [Example 922]
Exam item: Returns the items ordered by IC50, from maximum to minimum. Labels, ranked as asked.
Marked response: a, d, b, c, e
(a: 0.158 µM, d: 0.0754 µM, b: 0.0463 µM, c: 0.0235 µM, e: 0.00839 µM)

A: C#CCOc1cnc2c(Nc3cnc(F)c([C@@]4(C)N=C(N)S[C@@]5(CF)C[C@H]54)c3)nccc2n1 [Example 601]
B: COC[C@]12C[C@H]1[C@@](C)(c1cc(NC(=O)c3cnc(OCC(C)(C)C)cn3)cc(F)c1F)N=C(N)S2 [Example 1069]
Exam item: I would appreciate it if you could say which entry, A or B , has the lower IC50 value. Response format: the label of the selected entry.
Marked response: A
(A: 0.0361 µM, B: 0.878 µM)

I: C[C@]1(c2cc(Nc3nccc4nc(OCc5ncco5)cnc34)cnc2F)N=C(N)S[C@]2(CO)[C@H]1C2(F)F [Example 663]
II: COC[C@]12C[C@H]1[C@@](C)(c1cc(NC(=O)c3cnc(OCC4CCC4)cn3)cc(F)c1F)N=C(N)S2 [Example 1020]
Exam item: Which value of IC50 is smaller, the one for I or the one for II ? Use the label to indicate which entry you chose.
Marked response: I
(I: 0.0174 µM, II: 0.0998 µM)

---

target: Recombinant Cat D (Homo sapiens (Human), UniProt P07339); assay: In vitro enzymatic Cathepsin D (Cat D) FRET assay; format: biochemical; details: read-out: IC50 IP (μM) CatD
Sequence (P07339 65-412): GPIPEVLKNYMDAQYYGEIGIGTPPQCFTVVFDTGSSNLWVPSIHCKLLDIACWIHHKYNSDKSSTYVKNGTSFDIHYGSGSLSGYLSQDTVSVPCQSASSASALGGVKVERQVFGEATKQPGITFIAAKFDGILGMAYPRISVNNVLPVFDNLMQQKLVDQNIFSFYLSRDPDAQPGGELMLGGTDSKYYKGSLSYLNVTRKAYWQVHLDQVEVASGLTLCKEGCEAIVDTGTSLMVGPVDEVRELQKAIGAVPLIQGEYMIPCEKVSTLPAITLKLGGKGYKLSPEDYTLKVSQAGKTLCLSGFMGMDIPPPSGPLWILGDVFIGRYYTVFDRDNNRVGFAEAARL
MEASURE NAME: IC50 (µM)

Reference set (5 entries):
| MOL | MEASURE NAME | UNIT OF MEASURE | ASSAY RESULT |
| --- | --- | --- | --- |
| CC(=O)[C@]12C[C@H]1[C@@](C)(c1cc(Nc3ncnc4cc(Cl)cnc34)cc(F)c1F)N=C(N)S2 | IC50 | µM | 479 |
| C#CCOc1cnc2c(Nc3cnc(F)c([C@@]4(C)N=C(N)S[C@@]5([C@@H](O)C(F)(F)F)C[C@H]54)c3)nccc2n1 | IC50 | µM | 554 |
| COCCOc1cnc2c(Nc3ccc(F)c([C@@]4(CF)N=C(N)S[C@@]5(COC)C[C@H]54)c3)ncnc2c1 | IC50 | µM | 595 |
| C#C[C@H](C)Oc1cnc(C(=O)Nc2ccc(F)c([C@@]3(C)N=C(N)S[C@@]4(COC)C[C@H]43)c2)c(C)c1 | IC50 | µM | 803 |
| C#CCOc1cnc2c(Nc3cnc(F)c([C@@]4(C)N=C(N)S[C@@]5([C@H](O)C(F)(F)F)C[C@H]54)c3)ncnc2c1 | IC50 | µM | 1110 |

1: C#C[C@H](C)Oc1cnc2c(Nc3cc(F)c(F)c([C@@]4(C)N=C(N)S[C@@]5(C(=O)N6CCCC6)C[C@H]54)c3)nccc2n1
2: COC[C@]12C[C@H]1[C@@](C)(c1cc(NC(=O)c3ccc(OCC(F)(F)C(F)F)cn3)cc(F)c1F)N=C(N)S2
Exam item: Select one: 1 or 2 . Criterion: greater recorded IC50. Use the label to indicate which entry you chose.
Marked response: 1

---

target: human recombinant BACE2 (Homo sapiens (Human)); assay: In vitro enzymatic BACE2 FRET assay; assay type: biochemical; details: read-out: IC50 IP (μM) BACE2 enzyme
MEASURE NAME: IC50 (µM)

1: C#CCOc1cnc2c(Nc3cc(F)c(F)c([C@@]4(C)N=C(N)S[C@@]5(C(=O)N6CCCC6)C[C@H]54)c3)ncnc2c1
2: Cc1cc(OCC(F)(F)F)cnc1C(=O)Nc1ccc(F)c([C@@]2(C)N=C(N)S[C@@]3(CF)C[C@H]32)c1
3: [2H]C([2H])([2H])OC[C@]12C[C@H]1[C@@](C)(c1cc(Nc3ncnc4cc(Cl)cnc34)cnc1F)N=C(N)S2
Exam item: Reorder the list above by recorded IC50 in ascending order. Use the labels to give the ranking in the order requested.
Marked response: 1, 3, 2

---

Biological target: human recombinant BACE2 (Homo sapiens (Human))
Test: In vitro enzymatic BACE2 FRET assay
Format: biochemical
Settings: read-out: IC50 IP (μM) BACE2 enzyme
Protocol: These recombinant proteins were further purified using Ni-NTA affinity chromatography (Qiagen). […] This assay is effectively started by the addition of FRET substrate (50 nM) and the combination is incubated for one hour. The FRET assay is terminated by addition of Tris buffer, which raises the pH to neutrality, and the fluorescence is determined. […] Proteolytic cleavage of the FRET substrate releases quenching of fluorescence (excitation 488 nm and emission 590 nm).
MEASURE NAME: IC50 (µM)

| MOL | IC50 (µM) |
| --- | --- |
| C#CCOc1cnc2c(Nc3ccc(F)c([C@@]4(CF)N=C(N)S[C@H]5C[C@H]54)c3)nccc2n1 | 0.0384 |
| COC[C@]12C[C@H]1[C@@](C)(c1cc(NC(=O)c3cnc(OCC4(C)COC4)cn3)ccc1F)N=C(N)S2 | 1.19 |
| C#CCOc1cnc2c(Nc3ccc(F)c([C@@]4(CF)N=C(N)S[C@@]5(Cn6cc(C)nn6)C[C@H]54)c3)nccc2n1 | 0.0746 |
| COC[C@]12C[C@H]1[C@@](C)(c1cc(NC(=O)c3ncc(OCC(F)(F)F)nc3C)cc(F)c1F)N=C(N)S2 | 0.0161 |
| C[C@]1(c2cc(NC(=O)c3cnc(OCc4ncco4)cn3)cc(F)c2F)N=C(N)S[C@@]2(CF)C[C@H]21 | 0.0207 |
| COC[C@]12C[C@H]1[C@@](C)(c1cc(NC(=O)c3c[nH]c(=O)cn3)cc(F)c1F)N=C(N)S2 | 0.0565 |

I: C#CCOc1cnc2c(Nc3cc(F)c(F)c([C@@]4(C)N=C(N)S[C@@]5(C(N)=O)C[C@H]54)c3)nccc2n1
II: COC[C@]12C[C@H]1[C@@](C)(c1cc(Nc3nccc4cc(OCc5nc(Br)cs5)cnc34)cc(F)c1F)N=C(N)S2
III: C[C@]1(c2cc(Nc3nccc4nc(OCCN5CCCC5=O)cnc34)cc(F)c2F)N=C(N)S[C@@]2(C(F)F)C[C@@H]12
IV: C#CCOc1cnc2c(Nc3ccc(F)c([C@@]4(CF)N=C(N)S[C@@]5(COC)C[C@H]54)c3)ncnc2c1
V: C[C@]1(c2cc(NC(=O)c3ccc(Cl)cn3)cnc2F)N=C(N)S[C@H]2C[C@H]21
Exam item: I would appreciate it if you could sort these 5 compounds by IC50, starting from the smallest number. The response must list the labels following the requested ordering.
Marked response: V, I, IV, II, III
(V: 0.00261 µM, I: 0.00714 µM, IV: 0.0417 µM, II: 0.765 µM, III: 3.86 µM)

A: C#CCOc1cnc(C(=O)Nc2ccc(F)c([C@@]3(C)N=C(N)S[C@@]4(C(F)F)C[C@@H]34)c2)c(C)n1
B: C#CCOc1cnc(C(=O)Nc2ccc(F)c([C@@]3(C)N=C(N)S[C@@]4(C(F)F)C[C@@H]34)c2)c(C)c1
Exam item: Parameter metric = IC50. Return the lower-valued option from A and B . In your reply, give the label of the chosen option.
Marked response: A
(A: 0.0101 µM, B: 0.0221 µM)
